Tested on: PaTu 8988t
Assay: Antiproliferative activity against human PaTu 8988t cells assessed as inhibition of cell viability measured for 3 to 5 days by alamar blue staining based assay
Assay type: functional
pIC50: −log10 of the molar value.
test.readout: pIC50

The value of pIC50 recorded for C[C@H]1CC(=O)Nc2cc(C(=O)NCCC3CC3)ccc2N1C(=O)N1CC2CC2C1 (stereo partly specified) when tested on PaTu 8988t reads < 5.00

* * *

Molecular target: N-lysine methyltransferase SMYD2 (Homo sapiens) (UniProt Q9NRG4)
Sequence (Q9NRG4 whole entry): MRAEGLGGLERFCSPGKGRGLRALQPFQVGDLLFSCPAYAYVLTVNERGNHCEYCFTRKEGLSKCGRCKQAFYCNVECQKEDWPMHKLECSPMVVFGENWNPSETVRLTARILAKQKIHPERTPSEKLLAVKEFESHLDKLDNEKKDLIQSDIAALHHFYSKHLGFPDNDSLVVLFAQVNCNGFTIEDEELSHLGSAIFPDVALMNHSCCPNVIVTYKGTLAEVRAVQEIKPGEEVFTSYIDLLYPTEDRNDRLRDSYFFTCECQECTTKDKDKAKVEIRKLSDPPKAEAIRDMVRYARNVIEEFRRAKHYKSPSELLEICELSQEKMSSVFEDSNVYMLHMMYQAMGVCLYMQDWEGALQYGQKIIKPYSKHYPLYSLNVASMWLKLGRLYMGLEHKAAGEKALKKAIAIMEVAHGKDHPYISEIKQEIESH
Assay: Binding affinity to recombinant human SMYD2 expressed in Sf9 insect cells assessed as change in melting temperature at 120 uM by SYPRO Orange staining based thermal shift assay
For each record, write down the corresponding deltaTm.
State the result as a value with its unit after it.

Form: compound = CCCCCNC(=O)c1ccc2c(c1)NC(=O)CC(C)N2C(=O)c1ccc(C)cc1 (configuration not stated) ; deltaTm = 0.2 K

Form: compound = CCCCCNC(=O)c1ccc2c(c1)NC(=O)CC(C)N2C(=O)C1CCCC1 (configuration not stated) ; deltaTm = 0.1 K

Form: compound = CCCCNC(=O)c1ccc2c(c1)NC(=O)CC(C)N2C(=O)CCC1CCCC1 (configuration not stated) ; deltaTm = 0.2 K

Form: compound = CCCCNC(=O)c1ccc2c(c1)NC(=O)CC(C)N2C(=O)c1ccccc1F (configuration not stated) ; deltaTm = 0 K

Form: compound = CCCCNC(=O)c1ccc2c(c1)NC(=O)CC(C)N2C(=O)c1cccc(F)c1 (configuration not stated) ; deltaTm = 0.2 K

Form: compound = CCCCCNC(=O)c1ccc2c(c1)NC(=O)CC(C)N2C(=O)c1ccccc1F (configuration not stated) ; deltaTm = 0.2 K

Form: compound = CCCNC(=O)c1ccc2c(c1)NC(=O)CC(C)N2C(=O)c1cccs1 (configuration not stated) ; deltaTm = 0 K

* * *

Assay: Kinetic solubility of the compound at pH 6.5
Type: physicochemical
Conditions: buffer, read-out: Kinetic_solubility
test.readout: solubility kinetic

Form: molecule = CCN1CCC(N(C)C(=O)N2c3ccc(C(=O)NCCC4CC4)cc3NC(=O)C[C@@H]2C)CC1 ; solubility kinetic = > 456 µg/mL

Form: molecule = C[C@H]1CC(=O)Nc2cc(C(=O)NCCC3CC3)ccc2N1C(=O)NC1CCNCC1 ; solubility kinetic = 252 µg/mL

Form: molecule = CCN1CCN(C(=O)N2c3ccc(C(=O)NCCC4CC4)cc3NC(=O)C[C@@H]2C)CC1 ; solubility kinetic = > 428 µg/mL

* * *

Molecular target: Histone-lysine N-methyltransferase SMYD3 (Homo sapiens) (UniProt Q9H7B4)
Sequence (Q9H7B4 whole entry): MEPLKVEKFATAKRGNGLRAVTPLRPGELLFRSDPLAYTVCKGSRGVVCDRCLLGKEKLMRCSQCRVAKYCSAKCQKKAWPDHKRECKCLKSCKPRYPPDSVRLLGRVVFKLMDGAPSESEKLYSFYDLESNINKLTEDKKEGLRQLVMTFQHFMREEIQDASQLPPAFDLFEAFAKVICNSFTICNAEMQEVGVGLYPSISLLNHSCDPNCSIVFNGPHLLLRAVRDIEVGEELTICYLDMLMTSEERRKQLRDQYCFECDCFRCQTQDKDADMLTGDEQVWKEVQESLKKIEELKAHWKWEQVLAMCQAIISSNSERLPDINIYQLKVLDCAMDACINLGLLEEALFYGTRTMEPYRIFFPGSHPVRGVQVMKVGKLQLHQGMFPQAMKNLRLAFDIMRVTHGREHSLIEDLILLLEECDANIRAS
Details: dose 120.0 µM
Description: Binding affinity to recombinant human SMYD3 expressed in Escherichia coli assessed as change in melting temperature at 120 uM by SYPRO Orange staining based thermal shift assay
For each record, write down the corresponding deltaTm.
I only need the number, in K, no unit after it.

Form: molecule = C[C@@H]1CC(=O)Nc2cc(C(=O)NCCC3CC3)ccc2N1C(=O)N1CC2CC2C1 (stereo partly drawn) ; deltaTm = 5.15

Form: molecule = C[C@H]1CC(=O)Nc2cc(C(=O)NCCC3CC3)ccc2N1C(=O)NC1CCNCC1 ; deltaTm = 6.77

Form: molecule = C[C@H]1CC(=O)Nc2cc(C(=O)NCCC3CC3)ccc2N1C(=O)N(C)C1CCNCC1 ; deltaTm = 6.1

* * *

Assay: Lipophilicity, log D of the compound at pH 7.5
Format: physicochemical
Conditions: buffer
test.readout: logD
Reply with the value as a number alone.

Form: compound = CC1CC(=O)Nc2cc(C(=O)NCCC3CCC3)ccc2N1C(=O)c1ccccc1 (racemic) ; logD = 2.4

Form: compound = C[C@H]1CC(=O)Nc2cc(C(=O)NCCC3CC3)ccc2N1C(=O)N1CC[C@H](N)C1.Cl ; logD = 1.4

Form: compound = C[C@H]1CC(=O)Nc2cc(C(=O)NCCC3CC3)ccc2N1C(=O)N(C)C1CCNCC1 ; logD = 1.3

Form: compound = C[C@H]1CC(=O)Nc2cc(C(=O)NCCC3CC3)ccc2N1C(=O)N(C)C1CCN(CC(F)(F)F)CC1 ; logD = 2.4

Form: compound = C[C@H]1CC(=O)Nc2cc(C(=O)NCCC3CC3)ccc2N1C(=O)N1CCCNCC1 ; logD = 1.4

Form: compound = C[C@H]1CC(=O)Nc2cc(C(=O)NCCC3CC3)ccc2N1C(=O)N1CCC(N)CC1 ; logD = 1.4

Form: compound = C[C@H]1CC(=O)Nc2cc(C(=O)NCCC3CC3)ccc2N1C(=O)N1CC[C@@H](N)C1.Cl ; logD = 1.4
